# Assay Protocol: Acute Toxity, mouse
# Experimental Parameters: in vivo, intravenous injectional dosage, 7 days
Note to self: use satisfied only for LD50 at 168 h readings below 30 mg/kg; a reading exactly at 30 mg/kg still gets not satisfied.

query: Here's an entry: CN1CCOC(c2ccccc2)c2ccccc2C1 (stereo not drawn) [Nefopam, reference compound] . Is its LD50 at 168 h below 30 mg/kg?
result: not satisfied

query: Is 30 mg/kg strictly greater than the compound's reported LD50 at 168 h? compound: CN1CCN(CCCC(=O)c2ccc(F)cc2)Cc2ccccc2C1c1ccccc1 (stereo not drawn)
result: satisfied

query: Determine whether this compound shows LD50 at 168 h lower than 30 mg/kg (ties excluded): COc1ccc(C2NCCN(CCCC(=O)c3ccc(F)cc3)Cc3ccccc32)cc1 (stereo not drawn)
result: not satisfied

query: Please let me know if COc1ccc(CCN2CCN(C)C(c3ccc(OC)cc3)c3ccccc3C2)cc1 (stereo not drawn) shows LD50 at 168 h below 30 mg/kg.
result: not satisfied

query: Dear colleague, could you confirm whether LD50 at 168 h of c1ccc(C2NCCN(CC3CC3)Cc3ccccc32)cc1 (stereo not drawn) falls below 30 mg/kg? Thanks.
result: satisfied

---

# Assay Protocol: Acute Toxity, rat
# Experimental Parameters: in vivo, po
Assay Endpoint: LD50 at 168 h

Field LD50 at 168 h (entry CCOC(=O)/C=C/C(=O)Nc1ccc(CCN2CCNC(c3ccccc3)c3ccccc3C2)cc1 (stereo not shown) [Compound I-e] ) reads > 5000 mg/kg

---

Task for the reader: assign each of the following compounds its reported LD50 at 168 h.
# Assay Protocol: Acute Toxity, rat
# Experimental Parameters: in vivo, intravenous injectional dosage, 7 days
Include the unit right after the number.

Memo: c1ccc(C2NCCN(CC3CC3)Cc3ccccc32)cc1 (stereo not drawn) [Compound I-d] , reported LD50 at 168 h: 17.8 mg/kg

Briefly, LD50 at 168 h measured for CN1CCN(CCCC(=O)c2ccc(F)cc2)Cc2ccccc2C1c1ccccc1 (stereo not drawn) [Compound I-c] : 23.8 mg/kg

Sample COc1ccc(C2c3ccccc3CN(CCCC(=O)c3ccc(F)cc3)CCN2C)cc1 (stereo not drawn) [Compound I-a] ; LD50 at 168 h observed: 20 mg/kg

Per the records, this compound ( COc1ccc(C2NCCN(CCCC(=O)c3ccc(F)cc3)Cc3ccccc32)cc1 (stereo not drawn) [Compound I-f] ) has LD50 at 168 h equal to 19.8 mg/kg

So for CN1CCOC(c2ccccc2)c2ccccc2C1 (stereo not drawn) [Nefopam, reference compound] , the logged LD50 at 168 h turned out to be 18 mg/kg

The reported value for COc1ccc(CCN2CCN(C)C(c3ccc(OC)cc3)c3ccccc3C2)cc1 (stereo not drawn) [Compound I-b] in terms of LD50 at 168 h is 20.7 mg/kg

---

# Assay Protocol: Acute Toxity, mouse
# Experimental Parameters: in vivo, oral dosage, 7 days
Assay Endpoint: LD50 at 168 h

# molecule CN1CCOC(c2ccccc2)c2ccccc2C1 (stereo not drawn) [Nefopam, reference compound] ; its LD50 at 168 h = 356 mg/kg

The measured LD50 at 168 h associated with CN1CCN(CCCC(=O)c2ccc(F)cc2)Cc2ccccc2C1c1ccccc1 (stereo not drawn) reads 1700 mg/kg

// LD50 at 168 h value for COc1ccc(CCN2CCN(C)C(c3ccc(OC)cc3)c3ccccc3C2)cc1 (stereo not drawn) : 623 mg/kg

Given item COc1ccc(C2NCCN(CCCC(=O)c3ccc(F)cc3)Cc3ccccc32)cc1 (stereo not drawn) , the value recorded as its LD50 at 168 h is 340 mg/kg

So, c1ccc(C2NCCN(CC3CC3)Cc3ccccc32)cc1 (stereo not drawn) ? Its LD50 at 168 h was 215 mg/kg

Input COc1ccc(C2c3ccccc3CN(CCCC(=O)c3ccc(F)cc3)CCN2C)cc1 (stereo not drawn) . Output LD50 at 168 h: 1500 mg/kg
